# EC50 listing for each entry below
- Tested on: O. gutturosa adult male worms
- EXPERIMENT_SUMMARY: O. gutturosa adult worm ex vivo assay, MTT/formazan viability
- Type: cell-based, Onchocerca gutturosa
- MEASUREMENT_CONTEXT: supplement; SD in brackets in the PDF table; read-out: O. gutturosa EC50 (uM) MTT viability inhibition
- Procedure: Activity against O. gutturosa adult male worms was determined using reported procedures.[7] The EC50 values were calculated using Microsoft Office Excel (2010) data analysis software. […] Drug efficacy was assessed by the measurement of mean worm motility scores on a scale of 0 (immotile) to 10 (maximum) every 24 h, terminating at 120 h, using an Olympus inverted microscope. […] In addition, biochemical evaluation of worm viability was assessed using MTT/formazan colorimetry. […]
Write down the numeric answer in µM and omit the unit.

The following compounds have reported results that may help.
>>> meas_value("Cc1cccnc1N(C)c1nc(-c2ccc(OC(C)C)cn2)ns1")
0.357
>>> meas_value("CC(C)c1ccnc(-c2nsc(Nc3ncccc3C(F)(F)F)n2)c1")
0.069
>>> meas_value("Cc1cccnc1Nc1nc(-c2ccc(OC(C)C)cn2)ns1")
0.013
>>> meas_value("Cc1cccnc1Nc1nc(-c2ccc(C(=O)N(C)C)cn2)ns1")
0.087
>>> meas_value("Cc1ccnc(-c2nsc(Nc3ncccc3C(F)(F)F)n2)c1")
0.069

Request: Lookup: EC50 / O. gutturosa adult male worms / "Cc1cccnc1Nc1nc(-c2ccc(OC3CC4(C3)CN(C3CC3)C4)cn2)ns1"
Response: 0.033

Request: Lookup: EC50 / O. gutturosa adult male worms / "Cc1cccnc1Nc1nc(-c2ccc(OC3CCOCC3)cn2)no1"
Response: 4.06

----------
# Rat Microsomes listing for each entry below
- EXPERIMENT_SUMMARY: Liver microsome metabolic stability assay, rat
- Type: in vitro ADME
- MEASUREMENT_CONTEXT: Table 1; 3 μM, 30 min
Write down the numeric answer in % remaining and omit the unit.

The following molecules have reported results that may help.
>>> meas_value("Cc1cccnc1Nc1nsc(-c2ccc(OC3CCOCC3)cn2)n1 [Compound 5]")
89
>>> meas_value("Cc1cccnc1Nc1nnc(-c2ccc(OC3CCOCC3)cn2)s1 [Compound 4]")
89
>>> meas_value("COc1ccc(Nc2nc(-c3ccccn3)ns2)nc1 [Compound 2]")
78

Consider now this further molecule.
Request: Record request: Rat Microsomes value, item Cc1cccnc1Nc1nnc(-c2ccc(OC3CCOCC3)cn2)o1 [Compound 7]
Response: 39

----------
- EXPERIMENT_SUMMARY: Kinetic solubility measurement
- Format: physicochemical
- MEASUREMENT_CONTEXT: 10 mM DMSO stock solutions
just bin them by solubility kinetic at 24 h: LOW: < 3 µM; MEDIUM: ≥ 3 µM and < 30 µM; HIGH: ≥ 30 µM

>>> assigned_class("Cc1cccnc1Nc1nc(-c2ccc(C#N)cn2)ns1")
"LOW"
>>> assigned_class("CC(C)Oc1ccc(-c2nsc(Nc3ncc(C(F)(F)F)cc3C(=O)N(C)C)n2)nc1")
"MEDIUM"
>>> assigned_class("CC(C)Oc1cccnc1-c1nsc(Nc2ncc(C(F)(F)F)cc2C(=O)N(C)C)n1")
"HIGH"
>>> assigned_class("CC(=O)N(C)c1cnc(Nc2nc(-c3ccc(OC(C)C)cn3)ns2)c(C)c1")
"MEDIUM"
>>> assigned_class("COc1cccnc1Nc1nc(-c2ccc(OC(C)C)cn2)ns1")
"MEDIUM"
>>> assigned_class("Cc1cccnc1Nc1nc(-c2ncc(OC(C)C)cn2)ns1")
"MEDIUM"

Consider the record given below.
Request: Lab log: "Cc1cccnc1Nc1n[nH]c(-c2ccc(OC3CCOCC3)cn2)n1" — assign solubility kinetic at 24 h category
Response: HIGH

----------
- EXPERIMENT_SUMMARY: Mouse pharmacokinetics
- Type: in vivo
- MEASUREMENT_CONTEXT: male CD-1 mouse, PO 30 mg/kg suspension
REPORTED_METRIC: Cmax (µM)
Write down the numeric answer in µM and omit the unit.

>>> meas_value("Cc1cccnc1Nc1nc(-c2ccc(OC(C)C)cn2)ns1")
8.26
>>> meas_value("CN(C)c1cccnc1Nc1nc(-c2ccc(OC3CC3)cn2)ns1")
2.34
>>> meas_value("CC(C)Oc1ccc(-c2nsc(Nc3ncccc3C(C)C)n2)nc1")
2.05
>>> meas_value("Cc1cccnc1Nc1nc(-c2ccc(OC3CCN(C4CC4)CC3)cn2)ns1")
2.08
>>> meas_value("COc1ccc(Nc2nc(-c3ccccn3)cs2)nc1")
0.69
>>> meas_value("COc1ccc(Nc2nc(-c3ccccn3)ns2)nc1")
1.26
>>> meas_value("CC(=O)N(C)c1cccnc1Nc1nc(-c2ccc(OC(C)C)cn2)ns1")
13.9

Consider now this further compound.
Request: Record request: Cmax value, item "CC(C)c1ccnc(-c2nsc(Nc3cc(C(F)(F)F)ccn3)n2)c1"
Response: 0.21

----------
- EXPERIMENT_SUMMARY: Liver S9 metabolic stability assay, rat
- Format: in vitro ADME
- MEASUREMENT_CONTEXT: 3 μM, 60 min
# Rat S9 metabolic stability listing for each entry below
Write down the numeric answer in % remaining and omit the unit.

>>> meas_value("Cc1cccnc1Nc1nc(-c2ccc(OC3CCOCC3)cn2)no1 [Compound 6]")
85
>>> meas_value("CNc1cccnc1Nc1nc(-c2ccc(OC(C)C)cn2)ns1 [Compound 30]")
73

Request: Record request: Rat S9 metabolic stability value, item Cc1cccnc1Nc1nc(-c2cc(C#N)c(OC(C)C)cn2)ns1 [Compound 15]
Response: 84

Request: Record request: Rat S9 metabolic stability value, item CC(C)Oc1ccc(-c2nsc(N(C)c3ncccc3C(C)C)n2)nc1 [Compound 44]
Response: 4

Request: Record request: Rat S9 metabolic stability value, item CC(C)c1cccnc1Nc1nc(-c2ccc(OC3CC3)cn2)ns1 [Compound 23]
Response: 78

----------
- EXPERIMENT_SUMMARY: Mouse pharmacokinetics
- Format: in vivo
- MEASUREMENT_CONTEXT: male CD-1 mouse, PO 10 mg/kg suspension
REPORTED_METRIC: Cmax (nM)
Write down the numeric answer in nM and omit the unit.

>>> meas_value("CC(C)Oc1ccc(-c2nsc(Nc3ncccc3N(C)C)n2)nc1")
650

Consider now this further compound.
Request: Record request: Cmax value, item "CC(=O)N(C)c1cccnc1Nc1nc(-c2ccc(OC(C)C)cn2)ns1"
Response: 5270

----------
- EXPERIMENT_SUMMARY: in vivo
- MEASUREMENT_CONTEXT: dog, po, 3 mg/kg
REPORTED_METRIC: Tmax (h)
Write down the numeric answer in h and omit the unit.

Request: Record request: Tmax value, item "CC(C)Oc1ccc(-c2nsc(Nc3ncccc3N(C)C)n2)nc1"
Response: 1.2

----------
- Test system: O. gutturosa adult male worms
- EXPERIMENT_SUMMARY: O. gutturosa adult worm ex vivo assay, motility
- Type: cell-based, Onchocerca gutturosa
- MEASUREMENT_CONTEXT: read-out: O. gutturosa EC50 (uM) motility inhibition; supplement; SD in brackets in the PDF table
- Procedure: Activity against O. gutturosa adult male worms was determined using reported procedures.[7] The EC50 values were calculated using Microsoft Office Excel (2010) data analysis software. […] Drug efficacy was assessed by the measurement of mean worm motility scores on a scale of 0 (immotile) to 10 (maximum) every 24 h, terminating at 120 h, using an Olympus inverted microscope. […] In addition, biochemical evaluation of worm viability was assessed using MTT/formazan colorimetry. […]
REPORTED_METRIC: EC50 (µM)
Write down the numeric answer in µM and omit the unit.

Request: Record request: EC50 value, item Cc1cccnc1N(C)c1nc(-c2ccc(OC(C)C)cn2)ns1 [Compound 42]
Response: 0.212

----------
- EXPERIMENT_SUMMARY: Rat pharmacokinetics
- MEASUREMENT_CONTEXT: in vivo, po, p.o. 10 mg/kg
REPORTED_METRIC: bioavailability (%)
Write down the numeric answer in % and omit the unit.

Request: Record request: bioavailability value, item "CC(C)Oc1ccc(-c2nsc(Nc3ncccc3N(C)C)n2)nc1"
Response: 63

----------
- EXPERIMENT_SUMMARY: in vivo
- MEASUREMENT_CONTEXT: dog, po, 3 mg/kg
REPORTED_METRIC: Cmax (nM)
Write down the numeric answer in nM and omit the unit.

Request: Record request: Cmax value, item "CC(C)Oc1ccc(-c2nsc(Nc3ncccc3N(C)C)n2)nc1"
Response: 1410

----------
- EXPERIMENT_SUMMARY: Rat pharmacokinetics
- MEASUREMENT_CONTEXT: in vivo, po, p.o. 10 mg/kg
REPORTED_METRIC: Tmax (h)
Write down the numeric answer in h and omit the unit.

Request: Record request: Tmax value, item "CC(C)Oc1ccc(-c2nsc(Nc3ncccc3N(C)C)n2)nc1"
Response: 2

----------
- EXPERIMENT_SUMMARY: LogD measurement (octanol-water)
- Format: physicochemical
- MEASUREMENT_CONTEXT: supplement; read-out: measured logD
REPORTED_METRIC: logD at 24 h
Could you keep your reply to the number by itself?

The following compounds have reported results that may help.
>>> meas_value("Cc1cccnc1Nc1nc(-c2cc(C(=O)N(C)C)c(OC(C)C)cn2)ns1")
2.3
>>> meas_value("CC(C)Oc1cnc(-c2nsc(Nc3ncccc3N(C)C)n2)cc1C(F)(F)F")
2.9
>>> meas_value("CC(C)Oc1ccc(-c2nsc(Nc3ncc(C(F)(F)F)cc3C(=O)N(C)C)n2)nc1")
3.2
>>> meas_value("Cc1cccnc1Nc1nc(-c2cc(C(=O)N(C)C)ccn2)ns1")
1.9
>>> meas_value("CC(C)Oc1ccc(-c2nsc(Nc3cc(C(F)(F)F)c(C(C)C)cn3)n2)nc1")
2.8

Request: Record request: logD at 24 h value, item "Cc1ccnc(-c2nsc(Nc3ncccc3C(F)(F)F)n2)c1"
Response: 2.45

Request: Record request: logD at 24 h value, item "CC(C)Oc1ccc(-c2nsc(Nc3ncccc3N(C)C(=O)C3CC3)n2)nc1"
Response: 2.4

This collection of values is drawn from paper PMC9421654.
